- System: ALK5 (Homo sapiens)
- Construct: purchased Reaction Biology Corp (Malvern, Pa.)
- Test Method Notes: ALK5 enzyme inhibition assay (casein substrate, 10 uM ATP, 33P-ATP, filter-binding; Reaction Biology Corp)
- Type: biochemical
- Condition Parameters: Table 12
pIC50: −log10 of the molar value.
Quick list: pIC50 per entry.

Cc1cccc(-c2nc(CNC3CCCCC3C)[nH]c2-c2ccc3ncnn3c2)n1 (centres unmarked)	6.00 to 7.00

Form field: reported pIC50 of Cc1cccc(-c2nc(CNc3ccc4c(c3)CCC4N)[nH]c2-c2ccc3ncnn3c2)n1 (centres unmarked)
6.00 to 7.00

Form field: reported pIC50 of Cc1cccc(-c2nc(C3CN(C(=O)OC(C)(C)C)C3)[nH]c2-c2ccc3ncnn3c2)n1
5.00 to 6.00

Form field: reported pIC50 of Cc1cccc(-c2nc(C3CCCNC3)[nH]c2-c2ccc3ncnn3c2)n1 (centres unmarked)
5.00 to 6.00

Form field: reported pIC50 of Cc1cccc(-c2nc(CNc3cccc4c3CCC4N)[nH]c2-c2ccc3ncnn3c2)n1 (centres unmarked)
6.00 to 7.00

Form field: reported pIC50 of Cc1cccc(-c2nc(CNc3ccc4c(c3)C(N)CC4)[nH]c2-c2ccc3ncnn3c2)n1 (centres unmarked)
6.00 to 7.00

Form field: reported pIC50 of Cc1cccc(-c2nc(CNc3ccc4c(c3)CC(N)C4)[nH]c2-c2ccc3ncnn3c2)n1 (centres unmarked)
6.00 to 7.00

Form field: reported pIC50 of Cc1cccc(-c2nc(CNC3CCCOC3)[nH]c2-c2ccc3ncnn3c2)n1 (centres unmarked)
6.00 to 7.00

Form field: reported pIC50 of Cc1cccc(-c2nc(CN[C@H]3CCc4ccccc43)[nH]c2-c2ccn3ncnc3c2)n1
6.00 to 7.00

Form field: reported pIC50 of Cc1cccc(-c2nc(C34CCC(N)(CC3)CC4)[nH]c2-c2ccc3ncnn3c2)n1
5.00 to 6.00

Form field: reported pIC50 of Cc1cccc(-c2nc(CNc3cccc4c3CNC4)[nH]c2-c2ccn3ncnc3c2)n1
6.00 to 7.00

###

Quick list: pIC50 per entry.
- System: ALK5 (Homo sapiens, UniProt P36897)
- Construct: purchased Reaction Biology Corp (Malvern, Pa.)
- Sequence (P36897 34-503): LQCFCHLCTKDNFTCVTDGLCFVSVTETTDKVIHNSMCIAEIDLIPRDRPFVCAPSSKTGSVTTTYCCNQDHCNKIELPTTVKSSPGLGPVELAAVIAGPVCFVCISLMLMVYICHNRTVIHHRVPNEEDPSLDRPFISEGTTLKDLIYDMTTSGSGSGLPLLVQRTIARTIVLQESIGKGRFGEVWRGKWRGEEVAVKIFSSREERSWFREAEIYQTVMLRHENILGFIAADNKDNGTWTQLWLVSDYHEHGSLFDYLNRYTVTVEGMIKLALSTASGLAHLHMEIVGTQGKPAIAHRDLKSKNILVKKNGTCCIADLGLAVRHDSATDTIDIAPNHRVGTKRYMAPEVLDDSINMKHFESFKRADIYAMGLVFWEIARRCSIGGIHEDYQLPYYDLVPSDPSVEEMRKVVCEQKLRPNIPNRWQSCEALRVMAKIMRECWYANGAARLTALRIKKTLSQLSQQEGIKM
- Test Method Notes: ALK5 enzyme inhibition assay (casein substrate, 10 uM ATP, 33P-ATP, filter-binding; Reaction Biology Corp)
- Format: biochemical
- Condition Parameters: Table 11
pIC50: −log10 of the molar value.

Cc1cccc(-c2nc(CNCCNc3ccccc3)[nH]c2-c2ccc3ncnn3c2)n1	6.00 to 7.00

Form field: reported pIC50 of Cc1cccc(-c2nc(CNCc3ccccc3C3CCCC3)[nH]c2-c2ccc3ncnn3c2)n1
6.00 to 7.00

Form field: reported pIC50 of Cc1cccc(-c2nc(CNCCc3ccccc3)[nH]c2-c2ccc3ncnn3c2)n1
7.00 to 7.30

Form field: reported pIC50 of Cc1cccc(-c2nc(CNCc3ccccc3C(C)C)[nH]c2-c2ccc3ncnn3c2)n1
7.00 to 7.30

###

Quick list: IC50 per entry.
- Tested on: TGFβ/SMAD Signaling Pathway SBE reporter cell line
- Test Method Notes: TGFb reporter assay in HEK293 SBE-LUC reporter cells (luciferase)
- Assay type: cell-based
- Condition Parameters: Homo sapiens, key of the table says IC50, read-out: EC50 (the source's name)

Below, each entry is followed by its recorded IC50 result.
Cc1cccc(-c2nc(CNC3CCCCC3)[nH]c2-c2ccc3ncnn3c2)n1	10 to 100 nM
Cc1cccc(-c2nc(CNCCc3c(F)cccc3F)[nH]c2-c2ccnc3ccccc23)n1	100 to 1000 nM
Cc1cccc(-c2nc(CNCc3ccccc3)[nH]c2-c2ccc3c(c2)OCO3)n1	10 to 100 nM
Cc1cccc(-c2nc(CNCc3cccc(Cl)c3)[nH]c2-c2ccc3ncnn3c2)n1	10 to 100 nM

Form field: reported IC50 of COc1cccc(CNCc2nc(-c3cccc(C)n3)c(-c3ccc4ncnn4c3)[nH]2)c1C
0.1 to 10 nM

Form field: reported IC50 of Cc1cccc(-c2nc(CNCc3ccccc3-c3ccc(CN)cc3)[nH]c2-c2ccc3ncnn3c2)n1
100 to 1000 nM

Form field: reported IC50 of Cc1cccc(-c2nc(CNCCc3c(F)cccc3F)[nH]c2-c2ccncc2)n1
100 to 1000 nM

Form field: reported IC50 of Cc1cccc(-c2nc(CNCCc3c(F)cccc3F)[nH]c2-c2ccc3ncnn3c2)n1
0.1 to 10 nM

###

- Test system: TGFβ/SMAD Signaling Pathway SBE reporter cell line
- Test Method Notes: TGFb reporter assay in HEK293 SBE-LUC reporter cells (luciferase)
- Type: cell-based
- Condition Parameters: Homo sapiens, key of the table says IC50, read-out: EC50 (the source's name)
Quick list: IC50 per entry.

Cc1cccc(-c2nc(CNc3cccc4c3CNCC4)[nH]c2-c2ccc3ncnn3c2)n1 [Compound 1.3]	100 to 1000 nM
Cc1cccc(-c2nc(CNCc3ccccc3CC(F)(F)F)[nH]c2-c2ccc3ncnn3c2)n1 [Compound 27]	0.1 to 10 nM
Cc1cccc(-c2nc(CNC3CCCCCC3)[nH]c2-c2ccc3ncnn3c2)n1 [Compound 1.13]	10 to 100 nM
Cc1cccc(-c2nc(CNC3CC3)[nH]c2-c2ccc3ncnn3c2)n1 [Compound 1.7]	100 to 1000 nM
Cc1cccc(-c2nc(CNCc3ccccc3)[nH]c2-c2ccc3ncccc3n2)n1 [Compound 73]	100 to 1000 nM

Form field: reported IC50 of Cc1cccc(-c2nc(CNCc3ccc4c(c3)OCO4)[nH]c2-c2ccc3ncnn3c2)n1 [Compound 1.41]
100 to 1000 nM

Form field: reported IC50 of Cc1cccc(-c2nc(CNC3CCCNC3)[nH]c2-c2ccn3ncnc3c2)n1 (centres unmarked) [Compound 1.38]
1000 to 10000 nM

Form field: reported IC50 of Cc1cccc(-c2nc(CNCC3CCCCC3)[nH]c2-c2ccc3ncnn3c2)n1 [Compound 1.42]
10 to 100 nM

Form field: reported IC50 of Cc1cccc(-c2nc(C3CCCCN3)[nH]c2-c2ccc3ncnn3c2)n1 (centres unmarked) [Compound 1.49]
100 to 1000 nM

Form field: reported IC50 of Cc1cccc(-c2nc(CNCCc3cccc4ccccc34)[nH]c2-c2ccc3ncnn3c2)n1 [Compound 1.59]
10 to 100 nM

Form field: reported IC50 of Cc1cccc(-c2nc(CNCc3ccccc3C)[nH]c2-c2ccc3ncccc3n2)n1 [Compound 83]
0.1 to 10 nM

Form field: reported IC50 of Cc1cccc(-c2nc(CNCCOc3ccccc3)[nH]c2-c2ccc3ncnn3c2)n1 [Compound 65]
0.1 to 10 nM

Form field: reported IC50 of Cc1cccc(-c2nc(CNCc3ccccc3-c3ccccc3)[nH]c2-c2ccc3ncccc3n2)n1 [Compound 68]
10 to 100 nM

Form field: reported IC50 of Cc1cccc(-c2nc(CNCc3ccccc3-c3ccc(F)c(F)c3)[nH]c2-c2ccc3ncnn3c2)n1 [Compound 36]
10 to 100 nM

Form field: reported IC50 of Cc1cccc(-c2nc(CNc3cccc4c3CC(N)C4)[nH]c2-c2ccc3ncnn3c2)n1 (centres unmarked) [Compound 1.22]
100 to 1000 nM

Form field: reported IC50 of Cc1cccc(-c2nc(CNCc3ccccc3-c3ccccc3)[nH]c2-c2ccc3c(c2)OCO3)n1 [Compound 71]
100 to 1000 nM

###

- System: ALK5 (Homo sapiens)
- Construct: purchased Reaction Biology Corp (Malvern, Pa.)
- Test Method Notes: ALK5 enzyme inhibition assay (casein substrate, 10 uM ATP, 33P-ATP, filter-binding; Reaction Biology Corp)
- Format: biochemical
- Condition Parameters: Table 11
pIC50: −log10 of the molar value.
Measured Property: pIC50

Form field: reported pIC50 of Cc1cccc(-c2nc(CNCCc3c(F)cccc3F)[nH]c2-c2ccc3ncccc3c2)n1
7.30 to 10.00

Form field: reported pIC50 of Cc1cccc(-c2nc(CNCCc3c(F)cccc3F)[nH]c2-c2ccc3nccnc3c2)n1
7.30 to 10.00

Form field: reported pIC50 of Cc1cccc(-c2nc(CNCc3ccccc3)[nH]c2-c2ccc3ncnn3c2)n1
6.00 to 7.00

Form field: reported pIC50 of Cc1cccc(-c2nc(CNCc3cc(Cl)ccc3Cl)[nH]c2-c2ccc3ncnn3c2)n1
7.00 to 7.30

Form field: reported pIC50 of Cc1cccc(-c2nc(CNCCc3ccc(F)cc3F)[nH]c2-c2ccc3ncnn3c2)n1
6.00 to 7.00

Form field: reported pIC50 of COc1cccc(CNCc2nc(-c3cccc(C)n3)c(-c3ccc4ncnn4c3)[nH]2)c1
6.00 to 7.00

Form field: reported pIC50 of Cc1cccc(-c2nc(CNCc3ccccc3Oc3ccccc3)[nH]c2-c2ccc3ncnn3c2)n1
7.30 to 10.00

Form field: reported pIC50 of COC(=O)[C@H](NCc1nc(-c2cccc(C)n2)c(-c2ccc3ncnn3c2)[nH]1)c1ccccc1
7.00 to 7.30

Form field: reported pIC50 of Cc1cccc(-c2nc(CNCc3ccccc3-c3ccccc3CNC(=O)OC(C)(C)C)[nH]c2-c2ccc3ncnn3c2)n1
6.00 to 7.00

Form field: reported pIC50 of Cc1cccc(-c2nc(CNCc3ccc(Cl)cc3)[nH]c2-c2ccc3ncnn3c2)n1
5.00 to 6.00

Form field: reported pIC50 of COc1ccccc1CNCc1nc(-c2cccc(C)n2)c(-c2ccc3ncnn3c2)[nH]1
7.00 to 7.30

Form field: reported pIC50 of Cc1cccc(-c2nc(CNCc3ccccc3-c3ccccc3)[nH]c2-c2ccc3ncnn3c2)n1
7.30 to 10.00

Form field: reported pIC50 of Cc1cccc(-c2nc(CNCc3ccccc3-c3ccc(F)c(F)c3)[nH]c2-c2ccc3ncnn3c2)n1
7.00 to 7.30

Form field: reported pIC50 of Cc1cccc(-c2nc(CNCCCc3ccccc3)[nH]c2-c2ccc3ncnn3c2)n1
6.00 to 7.00

Form field: reported pIC50 of COc1cccc(CNCc2nc(-c3cccc(C)n3)c(-c3ccc4ncnn4c3)[nH]2)c1C
7.00 to 7.30
